Each entry below carries its reported Response Recovered (%).
System name: NMDA receptor GRIN1/GRIN2B (NR2B) expressed in HEK293 cells (Homo sapiens)
Construct: host or cells: HEK293
Sequence (Q13224 27-1484, other chains not shown): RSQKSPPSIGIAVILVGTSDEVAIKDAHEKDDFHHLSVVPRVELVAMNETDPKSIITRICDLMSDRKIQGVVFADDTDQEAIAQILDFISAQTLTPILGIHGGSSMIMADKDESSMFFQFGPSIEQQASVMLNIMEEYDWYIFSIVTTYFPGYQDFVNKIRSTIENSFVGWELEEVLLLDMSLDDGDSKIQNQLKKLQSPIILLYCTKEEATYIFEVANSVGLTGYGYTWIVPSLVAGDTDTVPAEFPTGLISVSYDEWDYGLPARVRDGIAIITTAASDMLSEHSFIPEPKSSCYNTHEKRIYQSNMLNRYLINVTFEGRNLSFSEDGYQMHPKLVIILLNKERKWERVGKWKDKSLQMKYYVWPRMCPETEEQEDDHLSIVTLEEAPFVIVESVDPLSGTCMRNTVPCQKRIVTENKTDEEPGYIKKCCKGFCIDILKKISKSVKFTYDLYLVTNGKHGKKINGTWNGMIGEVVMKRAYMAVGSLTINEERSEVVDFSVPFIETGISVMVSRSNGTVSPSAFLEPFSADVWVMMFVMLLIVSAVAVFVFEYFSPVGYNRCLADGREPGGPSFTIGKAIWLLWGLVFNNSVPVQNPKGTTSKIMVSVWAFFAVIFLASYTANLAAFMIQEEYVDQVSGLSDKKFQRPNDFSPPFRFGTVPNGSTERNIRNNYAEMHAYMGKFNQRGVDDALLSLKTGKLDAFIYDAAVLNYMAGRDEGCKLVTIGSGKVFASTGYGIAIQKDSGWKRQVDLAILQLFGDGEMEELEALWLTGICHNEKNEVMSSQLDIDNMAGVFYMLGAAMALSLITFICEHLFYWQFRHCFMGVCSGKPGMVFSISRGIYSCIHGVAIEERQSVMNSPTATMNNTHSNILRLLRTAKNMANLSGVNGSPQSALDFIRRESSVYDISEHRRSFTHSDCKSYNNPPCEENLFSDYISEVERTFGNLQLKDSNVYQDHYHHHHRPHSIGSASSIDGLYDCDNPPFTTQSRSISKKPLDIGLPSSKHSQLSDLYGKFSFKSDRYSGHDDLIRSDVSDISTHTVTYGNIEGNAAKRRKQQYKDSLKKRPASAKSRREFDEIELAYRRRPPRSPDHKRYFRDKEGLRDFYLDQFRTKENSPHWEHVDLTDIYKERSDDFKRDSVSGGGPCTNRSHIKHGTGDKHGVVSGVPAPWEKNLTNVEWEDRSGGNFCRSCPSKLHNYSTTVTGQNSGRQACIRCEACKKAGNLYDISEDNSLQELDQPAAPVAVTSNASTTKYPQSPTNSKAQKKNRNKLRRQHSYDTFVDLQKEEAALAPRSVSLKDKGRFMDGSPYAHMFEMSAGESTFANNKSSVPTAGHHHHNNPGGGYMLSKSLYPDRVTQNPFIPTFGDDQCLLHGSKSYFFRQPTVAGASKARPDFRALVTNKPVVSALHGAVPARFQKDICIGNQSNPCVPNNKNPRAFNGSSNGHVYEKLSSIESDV
Experiment description: Reversal of Ro 25-6981-mediated suppression of the Ca2+ response (fluo-8 fluorescence, FDSS) in HEK293 cells expressing GRIN1 and GRIN2B
Format: cell-based
Condition summary: % reversal=100*(R−Rneg)/(Rpos−Rneg) of Ro 25-6981 suppression of co-agonist (glutamate/glycine) Ca2+ response, 10 min pre-incubation, compound concentration not given
API: value field is a number in %; no unit string.

Example entries begin here.
Compound	Response Recovered (%)
O=C(Cn1cnc2scc(-c3ccc(Cl)cc3)c2c1=O)N1CCC(F)CC1 [Example 2]	25
Cc1sc2ncn(CC(=O)N3CCCC3)c(=O)c2c1-c1ccc(F)c(Cl)c1 [Example 83]	45
CC(C)(C)c1ccc(-c2csc3ncn(CC(=O)N4CCCC4)c(=O)c23)cc1 [Example 35]	14
Cn1nccc1-c1csc2ncn(CC(=O)N3CCCC3)c(=O)c12 [Example 33]	1

Could you share which Response Recovered (%) value was measured for O=C(CNn1cnc2scc(-c3ccc(Cl)c(C(F)(F)F)c3)c2c1=O)N1CCCC1 [Example 91] ? 2

Query (compound): O=C(Cn1cnc2scc(-c3ccc(F)c(C(F)(F)F)c3)c2c1=O)N1CCC(F)C1 (stereo not drawn) [Example 61] ; field requested: Response Recovered (%) 83
